target: DRB1*0802; assay: binding to purified HLA
Exercise: state measured IC50 for each of the binders provided.
Give bare numbers, in nM.

Below are worked cases with known answers.
- binder: "AAAFFVAANTLKADA [F4.N9.D14]"
  IC50, nM: 16
- binder: "AAAYFVAAFTLHAAA [Y4.F9.H12]"
  IC50, nM: 5.9
- binder: "AAAWFVAANTLHAAA [W4.N9.H12]"
  IC50, nM: 8.6
- binder: "AAAHFVAAWTLHAAA [H4.H12]"
  IC50, nM: 9.3
- binder: "AAAYFVAANTLHAAA [Y4.N9.H12]"
  IC50, nM: 12
- binder: "AAAFFVAANTLHAAA [F4.N9.H12]"
  IC50, nM: 28

# return IC50 for each item in the list
1. AAAKFVAAWTLKAAA [SEQ ID NO: 4]
2. AAAYFVAAWTLHAAA [Y4.H12]

5.2
9.7

Where do the numbers come from? From patent US20160114035A1.
